Assay: yeast display, Sf9 membrane polyspecificity reagent, FACS + sequencing; frameworks hold sequencing errors

- sequence_code: "QVQIGESGGGLVQAGGSRRLSCAASGLTFYLYAMGWYRQAPGKERELVAAITTSGGSTYYADSVKGRFTISRDNAKNTVYLQMNSLKPEDTAVYDCATQGAIRGYGYWGQGTQVTVSS"
  polyreactivity (PSR sort gate): "high polyreactivity"
- sequence_code: "QVQLQESGGGLVQAGGSLRLSCAASGTIFRISDMGSYRQAPGKEREFVAAITYGANTYYADSGKGRFTISRDNAKNTVSLQMNSLKPEDTAVYYCAVPPVKETILDYWGQGTQVTVSS"
  polyreactivity (PSR sort gate): "low polyreactivity"
- sequence_code: "QVQLVESGGGLVQAGGSLRLTCAASGSTFLYYAMGWSREGPGNERELVATITHGGATNYADSVKGRFTISRDNAKNTVYLELNSLIPDDTAVYYCATDSYHYSYGYASLPEYDYWGHGTQVTVSS"
  polyreactivity (PSR sort gate): "low polyreactivity"
- sequence_code: "QVQLVESGGGLVQAGGSLRLSCAASGSILYYYAMGWYRQAPGKERELVAAISSSGGRTYYADSVKGRFTISRDNAKNTVYLQMNSLKPEDTAVYYCAATNRRQPYKDREDYWGQGTQVTVSS"
  polyreactivity (PSR sort gate): "high polyreactivity"
- sequence_code: "QVQLEESGGGLVQAGGSLRISCAASGSTFWRYTMGWYRQEPGKERELVAAISWSGDGTYYADSVKGRFTISRDNAKNTVYLQMNSLKPEDTAVYYCAAEVYYANGYDYDYWGQGTQVTVSS"
  polyreactivity (PSR sort gate): "low polyreactivity"
- sequence_code: "QVQLVESGGGIVQAGVILRLSCAATGITFWNNAMRWYRQARGKERELVATISSNGGRTYYADSVKGRFTISRDNAKNTVYLQMNSLKPEDTAVYYCKARQVLYGLYLRAYPYEYWGQGTQVTVSS"
  polyreactivity (PSR sort gate): "low polyreactivity"
- sequence_code: "QVQLVESGGGLVQAGGSLRLSCAASGSTFYVYAMGWYRQAPGKERELVAAITTGGSTYYADSVKGRFTISRDNAKNTVYLQMNSLKPEDTAVYYCAADDPDPYDVPSYDYWGQGTQVTVSS"
  polyreactivity (PSR sort gate): "low polyreactivity"
- sequence_code: "QVQLVESGGGLVQAGGSLRLSCAASGRTFRPYAMGWYRQAPGKERELVAAISSRGSSTYYADSVKGRFTISRDNAKNTVYLQMNSLKPEDTAFYYCAAEGSVGLYGLIMHYWGQGTQVTVSS"
  polyreactivity (PSR sort gate): "high polyreactivity"
- sequence_code: "QVQLVESGGGIVQAGGSLRLSCAASGRIFAYYAMGWYRQAPGKERELVAAISTSGGSTYYADSVKGRFTISRDNAKNTVYLQMNSLKPEDTAVYYCAAEFGGGRSTNFDYWGQGTQVTVSS"
  polyreactivity (PSR sort gate): "low polyreactivity"
- sequence_code: "QVQLVESGGGLVQAGGSLRLSCAASGRTSARYGMGWYRQAPGKERELVASIRRSGDSTYYADSVKGRFTISRDNAKNTVYLQMNSLKPEDTAVYYCAAGGKQGKRDYWGQGTQVTVSS"
  polyreactivity (PSR sort gate): "low polyreactivity"
- sequence_code: "QVQLVESGGGLGQAGGSLRLSCAASGYIFPIYAMGWYRQAPGKERELVAAITESGGSTYYADSVKGRFTISRDNAKNTVYLQMNSLKQEDTAVYYCAKEVVKHPRGKLDYWGQGTQVTLSS"
  polyreactivity (PSR sort gate): "low polyreactivity"
- sequence_code: "QVQLVESGGRLVQAGGSLRLSCAASGSTFYPYAMGWYRQAPGKERELVAAINGNGGRTYYADSVKGRFTISRDNAKNTVYLQMNSLKPEDTAVYYCAVVRVAWGHRSDYWGQGTQVTVSS"
  polyreactivity (PSR sort gate): "high polyreactivity"
- sequence_code: "QVQLVETGGGLVQAGGSLRLSCAASGRTFAKYAMGWYRQAPGKERDLVASISGRGTNTYYADSVKGRFTISRDNAKNTVYLQMNSLKPEDTAVYYCAATYVYPYRDSHYFYWGQGTQVTVSS"
  polyreactivity (PSR sort gate): "high polyreactivity"
- sequence_code: "QDQLVESGGGLVQAGGSLRLSGAASGRIFRTNAMGWSRQAPGKERELVAAISDSGADTSYADSVKGRFTISRDNAKQSVYLQMNSLKPEDTAVYYCNRGRVSYRYLKDYDYWGQGTQVTVSS"
  polyreactivity (PSR sort gate): "low polyreactivity"
- sequence_code: "QVLLVESGGGLVQAGGSLRLSCAASGSILRTYAMGWYRQAPGKERELVAAITWSGGSTRYADSVKGRFTISRDNAKNTVYLQMNSLKPEDTAVYYCNARYRVYSYALYKYGYWGQGTQVTVSS"
  polyreactivity (PSR sort gate): "high polyreactivity"
- sequence_code: "QVQLVESGGGLVQAGGSLRLSCAASGYILQINAMGWYRQAPGKERELVSAISISGGNTYYADSVKGRFTISRDNAKNNVYLQMNSLKPEDTAVYYCAAYRYYSYLVRYGLLLAYYYWGQGTQVTVSS"
  polyreactivity (PSR sort gate): "low polyreactivity"
- sequence_code: "QVQLVESGGGLVQAGGTLRLSCAASGSIFWSYAMGWYRQAPGKEREFVASITGSGGTTTYADSVKGRFTISRDNAKNTVYLQMISLKPEDTAVYYCNARLHGWYHVYYIYDYWGQGTQVTVSS"
  polyreactivity (PSR sort gate): "low polyreactivity"
- sequence_code: "QVQLVESGGGLVQAGGSLRLSCAASGSIFVHNAMGWYRHAPGKERELVAAITWSGGSTYYADSVKGRFTISRDNAKNTVYLQMNSLKPEDTAVYYCAAEDVAAQWAYESPTSYWYYYWGQGTQVTVSS"
  polyreactivity (PSR sort gate): "low polyreactivity"
- sequence_code: "QVQLVESGGGLVQAGGSLRLSCAASGRIFSGYTMGWYRQAPGKERELVAAITRSGGSTYYADSVKGRFTISRDNAKNTVYLQMNSLKPEDTAVYYCNKVSYRRMDSWGQGTQVTVSS"
  polyreactivity (PSR sort gate): "high polyreactivity"
- sequence_code: "QVQLVESCGGLVHAGCSLRLSCAASGSTFTFYAMGWYRQAPGKERVLVATISWSTGTTYYADSVKGRFTISRDSAKNTVYLEMNSMKPEDTAVYYCADAWSYRFDYWGQGTQVTVSS"
  polyreactivity (PSR sort gate): "low polyreactivity"
- sequence_code: "QVQLVESVGGLVQAGGSLRLSCAASGRTLPWYAMGWYRQAPGKERELVAVIRWIGGRTYYADSVKGRFTISRDNAKNTVYLQMNSLKPEDTAVYYCAARPHYYYGWYYYWGQGTQVTVSS"
  polyreactivity (PSR sort gate): "high polyreactivity"
